Reference source for all entries: ChEMBL document CHEMBL3817728

# METHOD SUMMARY: Cytotoxicity against human Bel7402 cells assessed as cell viability after 48 hrs by MTT assay
# Type: functional, cell-based
# EXPERIMENTAL SETUP: Bel-7402, 48 h
OBSERVATION TYPE: pIC50
Please treat pIC50 as minus the base-10 logarithm of the molar concentration.

Which pIC50 value belongs to "COc1ccc2c(/C=C(\C)C(=O)c3cc(OC)c(OC)c(OC)c3)cn(P(=O)([O-])[O-])c2c1.[Na+].[Na+]" ?
7.21

Look up pIC50 for this compound: "COc1cc(C(=O)/C=C/c2cccc3[nH]ccc23)cc(OC)c1OC"
7.20

Record request: pIC50 value, item "COc1ccc(/C=C\c2cc(OC)c(OC)c(OC)c2)cc1O"
8.52

Give the measured pIC50 of "C=Cn1cc(/C=C(\C)C(=O)c2cc(OC)c(OC)c(OC)c2)c2ccc(OC)cc21" .
7.04

Field request: pIC50 | item: "COc1cc2c(c(OC)c1OC)C/C(=C\c1cccc3[nH]ccc13)C2=O"
7.46

Could you tell me which pIC50 is on file for "COc1ccc2c(/C=C(\C)C(=O)c3cc(OC)c(OC)c(OC)c3)cn(CO)c2c1" ?
8.05

Consider the compound "COc1ccc2c(/C=C/C(=O)c3cc(OC)c(OC)c(OC)c3)cn(C)c2c1" and give its measured pIC50.
7.21
